# Test system: SNB-19 CNS
# protocol: NCI tumour cell line growth inhibition, 48 h
molecules and their reported TGI

molecule	TGI
COc1cc(CC(C(=O)O)C(=O)O)c(OC)cc1CC(C(=O)O)C(=O)O	> 100 µM
COc1cc2ncn(-c3cc(OCc4ccccc4C(F)(F)F)c(C(C)=O)s3)c2cc1OC	> 25 µM
O=C(Nc1nc(-c2ccc(Cl)cc2)nc2c1sc(=S)n2-c1ccccc1)C(F)(F)F	37.5 µM
COc1ccc(/C=c2/sc3n(c2=O)NC(c2ccc(Cl)cc2)NN=3)cc1 (configuration not stated)	> 100 µM
Nc1ccc2c(c1)Oc1c(F)c(F)cc3c(=O)c(C(=O)O)cn-2c13	> 100 µM
CN(C)CCC1(C2=CCCC2)CC/C(=C\c2ccccc2Cl)C1=O (configuration not stated)	27.8 µM
CC(=O)O/N=C(Cl)/C(Cl)=N/OC(C)=O	> 100 µM
COC1(CC[C@H](C)COC2OC(CO)C(O)C(O)C2O)O[C@H]2C[C@H]3[C@@H]4CC=C5C[C@@H](OC6OC(CO)C(O)C(OC7OC(CO)C(O)C(O)C7O)C6OC6OC(C)C(O)C(O)C6O)CC[C@]5(C)[C@H]4CC[C@]3(C)[C@H]2[C@@H]1C (some centres not stated)	18.4 µM
COc1cccc2cc(C(=O)Nc3ccccn3)c(=N)oc12	> 100 µM
O=C(c1ccccc1)c1c(CC(O)c2ccccc2)n(C(=O)c2ccccc2)c2ccccc12 (configuration not stated)	> 100 µM
OC(c1ccccc1)C(F)(F)c1nc2ccccc2o1 (configuration not stated)	> 100 µM
COC(=O)C1C(C(=O)OC)C1(Br)CBr (configuration not stated)	> 100 µM
CC1(C)CN=C(Nc2ccc(F)c(F)c2)S1	> 100 µM
O=C1NC(S(=O)(=O)O)=NNC12c1ccccc1-c1ccccc12	> 10 µM
CCC(=O)NCCc1c2c3c(ccnc3c3ncsc13)-c1ccccc1N2	> 100 µM
CN1CCN(Cc2ccc(NC(=O)c3cncc(C#Cc4cnn5ccccc45)c3)cc2C(F)(F)F)CC1	5.03 µM
O=C1C(=O)N(c2cccc(C(F)(F)F)c2)C(=O)C(=O)C1c1nc2ccccc2s1	> 100 µM

###

# Tested on: SK-OV-3 ovarian
# protocol: NCI tumour cell line growth inhibition, 48 h

compound	TGI
COc1cc2c(c(OC(C)=O)c1OC(C)=O)-c1ccc(SC)c(=O)cc1C(NC(C)=O)CC2 (stereo not drawn)	> 36 µM
CCOC(=O)N1[C@@H]2CCC[C@@H]2C(=O)[C@@H]2CCC[C@@H]21	> 100 µM
Nc1c(N2CCCCC2)c(=O)nc2[nH]/c(=C\c3ccccc3)c(=O)n12	> 100 µM

###

compounds and their reported TGI
# Tested on: ACHN renal
# protocol: NCI tumour cell line growth inhibition, 48 h
measured.property: TGI

1. CC1(C)CN=C(Nc2ccc(F)c(F)c2)S1 > 100 µM
2. C[C@]12CC[C@@H]3c4ccc(OCCN5CCCC5)cc4CC[C@H]3[C@@H]1CCC2=O > 100 µM
3. CCOC(=O)c1c2cccccc2n2c(=O)cc(C)nc12 > 100 µM

###

# System: T-47D breast
# protocol: NCI tumour cell line growth inhibition, 48 h; in the data active = GI50 below about 0.43 µM; inactive = the rest
Labels: active, inactive

molecule	class.name
C[C@@H]1CC[C@@H]2[C@@H](C)C[C@H]3[C@@H]4C(C)(C)OC(=O)[C@]4(C)C(=O)[C@@]23C1=O	inactive
COc1ccc(/C=C2\CC(C)CC3C2=NN(c2ccccc2)C3c2ccc(OC)c(OC)c2)cc1OC (stereo not given)	inactive
NC(=Nc1nc(-c2ccccn2)cc2ccccc12)c1ccccn1	active
CCCCCCN(C)Cc1ccc(OCCOc2ccc(CN(C)CCCCCC)cc2)cc1	inactive
COC(=O)C1=C(O)[C@H](C(=O)OC)[C@]2(O)[C@@H](C(=O)OC)[C@H]1C[C@@H](c1ccc(OC(=O)/C=C/c3ccco3)cc1)[C@@H]2C(=O)OC	inactive

###

compounds and their reported GI50
# System: OVCAR-3 ovarian
# protocol: NCI tumour cell line growth inhibition, 48 h
Where a SMILES comes first, the peptide text is derived from it. [ ]: non-standard residue; d: D form. 2Nal = N[CH](Cc1ccc2ccccc2c1)C(=O)O

compound	measured.target	GI50
COc1cc(-c2ccc(NC(=O)NC3CC3)c(OC)c2)ccc1NC(=O)NC1CC1	OVCAR-3 ovarian	25.7 µM
COC(=O)C1=C(O)[C@H](C(=O)OC)[C@]2(O)[C@@H](C(=O)OC)[C@H]1C[C@@H](c1ccc(OC(=O)/C=C/c3ccco3)cc1)[C@@H]2C(=O)OC	OVCAR-3 ovarian	27.6 µM
CSc1ccc(C2=NN(C(C)=O)C(c3ccc(F)cc3)C2)cc1 (configuration not stated)	OVCAR-3 ovarian	16.2 µM
CCOC(=O)c1cc(-c2ccc(OC)c(OC)c2)[nH]c1N/N=C/c1c(Cl)cccc1Cl	OVCAR-3 ovarian	0.74 µM
CC(C)C(NC(=O)C(CCCCN)NC(=O)C(Cc1c[nH]c2ccccc12)NC(=O)C(Cc1ccc(O)cc1)NC(=O)C(CS)NC(=O)C(N)Cc1ccc2ccccc2c1)C(=O)NC(CS)C(=O)NC(C(N)=O)C(C)O (configuration not stated) (H-[2Nal]CYWKVCT-NH2; configuration not given here)	OVCAR-3 ovarian	> 100 µM
COc1cc2ncn(-c3cc(OCc4ccccc4C(F)(F)F)c(C(C)=O)s3)c2cc1OC	OVCAR-3 ovarian	> 25 µM
Cc1cn2c(/C=C3/C(=O)Nc4ccc(F)cc43)c(C)nc2s1	OVCAR-3 ovarian	3.5 µM

###

# Test system: SF-539 CNS
# protocol: NCI tumour cell line growth inhibition, 48 h
molecules and their reported TGI

molecule	measured.target	TGI
O=S(=O)(OI(O)CC(F)(F)F)C(F)(F)F	SF-539 CNS	> 100 µM
COc1cc2ncn(-c3cc(OCc4ccccc4C(F)(F)F)c(C(C)=O)s3)c2cc1OC	SF-539 CNS	> 25 µM
O=C(O)CCSC(=S)Nc1cccc(F)c1	SF-539 CNS	> 100 µM
COc1ccc(CNc2cnc3cc(N)cc(N)c3n2)cc1	SF-539 CNS	39.4 µM
COc1ccc2c(CCNS(=O)(=O)c3ccccc3)c(C(C)=O)[nH]c2c1	SF-539 CNS	> 100 µM
CC1=NN(C(=O)c2ccncc2)C(=O)C1N=Nc1ccc2ccccc2c1 (stereo not drawn)	SF-539 CNS	> 100 µM
N#CCCN(CCC#N)c1ccc(/C=C2\N=C(c3cc([N+](=O)[O-])ccc3Cl)N(NC(=O)CC(=O)Nc3ccccc3Cl)C2=O)cc1	SF-539 CNS	> 100 µM
O=C(O)C12C3CCC(O3)C1(C(=O)O)C1CCC2O1 (stereo not drawn)	SF-539 CNS	> 100 µM

###

compounds and their reported TGI
# Tested on: CCRF-CEM leukemia
# protocol: NCI tumour cell line growth inhibition, 48 h

compound	TGI
N#Cc1cc(NC(=O)c2ccccc2)c(=O)n2c1[nH]c1ccccc12	> 100 µM
COc1cccc2cc(C(=O)Nc3ccccn3)c(=N)oc12	> 100 µM
O=C(Nc1cccnc1)c1ccc2ccc3ccc(C(=O)Nc4cccnc4)nc3c2n1	> 100 µM
OC1CCC[C@@H]1Sc1ccccc1 (stereo partly drawn)	> 100 µM
BrCC(Br)(c1ccccc1)c1ccccc1-c1cc(-c2ccccc2)cc(-c2ccccc2)n1 (stereo not drawn)	> 53.3 µM
O=C(O)CC1CC=C[C@H]2c3cc4c(cc3C(=O)NC12)OCO4 (stereo partly drawn)	> 75 µM
CC(=O)OCC(OC(C)=O)C(OC(C)=O)C(OC(C)=O)C(/C=N\Nc1nc2ccccc2c(=O)[nH]1)=N/Nc1nc2ccccc2c(=O)[nH]1 (stereo not drawn)	> 100 µM
Cc1cc(C)n(C(=O)CSc2nnc(SCC(=O)n3nc(C)cc3C)s2)n1	> 100 µM
C1CCN2CC3CCCN4CCCC(C2C1)C34 (stereo not drawn)	> 100 µM
CCOC(=O)NC(=S)c1ccc(O)c2ccccc12	46.7 µM
NC(=O)C(Nc1ccc(Cl)cc1)c1cc2cc(Br)ccc2nc1Cl (stereo not drawn)	> 50 µM
COc1cc(-c2ccc(NC(=O)NC3CC3)c(OC)c2)ccc1NC(=O)NC1CC1	> 100 µM
COc1cc(C23OCC(Cc4cc5c(cc42)OCO5)C3CO)cc(OC)c1OC (stereo not drawn)	> 100 µM
C=C1C(=O)OC2CC3(C)CCCC(C)C3=CC12 (stereo not drawn)	4.53 µM
Cn1c2c3c(F)c(F)ccc3nc-2cc2ccccc21	28 µM
Cc1c2c(ccc3ccccc32)c[n+]2ccccc12	36.5 µM
COc1cc(CC(C(=O)O)C(=O)O)c(OC)cc1CC(C(=O)O)C(=O)O	> 100 µM
O=[N+]([O-])c1sc2ccc(Cl)cc2c1Nc1ccc(Cl)cc1	> 100 µM
O=C(O)c1nccnc1C(=O)O	> 100 µM
COc1ccc(/C=c2/sc3n(c2=O)NC(c2ccc(Cl)cc2)NN=3)cc1 (stereo not drawn)	> 100 µM
COc1ccc2c(c1)C(N)=C(Cc1ccncc1)C2=O	> 100 µM
Nc1c(N2CCCCC2)c(=O)nc2[nH]/c(=C\c3ccccc3)c(=O)n12	> 100 µM
Cn1c(-c2ccc(N=NNc3ccc(-c4n[nH]c(=S)n4C)cc3)cc2)n[nH]c1=S	> 100 µM
CCN(CC)CCNc1ccc(C)c2sc3ccccc3c(=O)c12	8.04 µM
C[C@]12CC/C(=N\OCCN3CCCCC3)C=C1CCC1C2CC[C@@]2(C)C1CC[C@]2(C)O (stereo partly drawn)	11.3 µM
CC1=NN(C(=O)c2ccncc2)C(=O)C1N=Nc1ccc2ccccc2c1 (stereo not drawn)	> 100 µM
CC(=O)O/N=C(Cl)/C(Cl)=N/OC(C)=O	> 100 µM
C=C1NC(=O)C(CC(C(=O)C(=O)Nc2c(C)cccc2C(C)(C)C)C(=O)c2ccc3ccccc3c2)C(=O)N1 (stereo not drawn)	> 100 µM
COc1ncnc2c1cnn2Cc1cn(CCCCO)nn1	> 100 µM
CCCCCCCCCc1c(O)c(O)c(CCCCCCCCC)c(CCCCCCCCC)c1CCCCCCCCC	88.6 µM
COc1ccc2nc3n(c2c1)C(c1c(Cl)cccc1Cl)SC3 (stereo not drawn)	> 100 µM
Oc1cc(CN2COc3ccccc32)c(O)cc1CNC1CCCCC1	> 100 µM
Oc1ccc(-c2cn3cc(C(F)(F)F)ccc3n2)cc1	> 100 µM
CC1=C2[C@H](c3ccccc3)C3C=CC2(c2ccccc23)N(C(=O)C(c2ccccc2)c2ccccc2)C1=O (stereo partly drawn)	> 100 µM
O=[N+]([O-])c1nccn1CCCNCCCn1ccnc1[N+](=O)[O-]	> 100 µM
CCOc1c(C#N)c2c(N)ncnc2n1C1OC(CO)C(O)C1O (stereo not drawn)	24 µM
CC(O[Si](c1ccccc1)(c1ccccc1)C(C)(C)C)[C@H](NC(=O)OC(C)(C)C)C(=O)O (stereo partly drawn)	> 100 µM
O=C(CN(c1ccc(S(=O)(=O)O)cc1)c1ccc(S(=O)(=O)O)cc1)Nn1cnc2ccc(S(=O)(=O)N(c3ccc(S(=O)(=O)O)cc3)c3ccc(S(=O)(=O)O)cc3)cc2c1=O	> 100 µM
